Target: T1, human BKB2R-derived epitope peptide (SEQ ID NO:73), PEG-biotin (human, also: PEG-biotin, site not given here)
T1 construct: also called immunogenic human BKB2R peptide fragment
T1 peptide: KEYSDEGHNVTAC
Assay: BLI (Octet), peptide-PEG-biotin on streptavidin sensor, antibody 500 nM
Where no end group is shown, it is not given here.

{"binder": "chimeric/humanized anti-BKB2R antibody L1/HC (antibody, human IgG2, V domains shown, not shown: human IgG2 constant region) VH: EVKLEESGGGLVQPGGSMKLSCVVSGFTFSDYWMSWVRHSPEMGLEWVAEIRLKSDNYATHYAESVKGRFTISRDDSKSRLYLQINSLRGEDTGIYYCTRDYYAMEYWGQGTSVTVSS VL: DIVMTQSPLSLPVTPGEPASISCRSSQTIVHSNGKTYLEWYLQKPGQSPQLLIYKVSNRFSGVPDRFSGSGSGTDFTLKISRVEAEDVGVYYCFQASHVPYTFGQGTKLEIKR", "unit_abbrev": "s⁻¹", "koff": 2.16}
{"binder": "humanized anti-BKB2R antibody H37/L37 (antibody, human IgG2, kappa, V domains shown) VH: EVQLVESGGGLVQPGGSLRLSCAASGFTFSDYWMDWVRQAPGKGLEWVGEIRLKSDNYATHYAASVKGRFTISRDDSKNSLYLQMNSLKTEDTAVYYCTRDYYAMEYWGQGTTVTVSS VL: DIVMTQTPLSLSVTPGQPASISCKSSQTIVHSNGKTYLYWYLQKPGQSPQLLIYKVSSRFSGVPDRFSGSGSGTDFTLKISRVEAEDVGVYYCFQASHVPYTFGQGTKLEIKR", "unit_abbrev": "s⁻¹", "koff": 1.18}

These measurements were taken from patent US20140017242A1.
